Entry source: patent US20190321483A1

In this section, each of the binders is paired with its reported EC50 (ng/ml), cell viability after 7 days, Human CD34+ cells.
Test System: Human cKIT on human mobilized peripheral blood hematopoietic stem cells (human, UniProt P10721 26-976)
Assay Explanation: cell-based or functional assay
Kindly provide the numeric value in ng/mL only, without the unit symbol.

Binder	U	Readout Number
J3: Anti-cKIT Fab′3 conjugated to Compound (1), DAR 4 (Fab, V domains shown, Compound (1) on native cysteine LC-214C (EU); Compound (1) on native cysteines HC-220C-226C-229C (EU)) VH: QVQLVQSGAEVKKPGSSVKVSCKASGGTFSSYAISWVRQAPGQGLEWMGTIGPFEGQPRYAQKFQGRVTITADESTSTAYMELSSLRSEDTAVYYCARGGYISDFDVWGQGTLVTVSS VL: DIQMTQSPSSLSASVGDRVTITCRASQSISNYLAWYQQKPGKAPKLLIYDASSLQSGVPSRFSGSGSGTDFTLTISSLQPEDFATYYCQQYYYESITFGQGTKVEIKR	ng/mL	8
J17: Anti-cKIT Fab′2 conjugated to mc-MMAF, DAR 4 (Fab, V domains shown, mc-MMAF on native cysteine LC-214C (EU); mc-MMAF on native cysteines HC-220C-226C-229C (EU)) VH: QVQLVQSGAEVKKPGSSVKVSCKASGGTFSSHALSWVRQAPGQGLEWMGGIIPSFGTADYAQKFQGRVTITADESTSTAYMELSSLRSEDTAVYYCARGLYDFDYWGQGTLVTVSS VL: DIQMTQSPSSLSASVGDRVTITCRASQDISQDLAWYQQKPGKAPKLLIYDASSLQSGVPSRFSGSGSGTDFTLTISSLQPEDFAVYYCQQYYYLPSTFGQGTKVEIKR	ng/mL	16

Attention now shifts to the item below.
Prompt: Entry under review: J19: Anti-cKIT Fab′2 conjugated to Compound (2), DAR 4 (Fab, V domains shown, Compound (2) on native cysteine LC-214C (EU); Compound (2) on native cysteines HC-220C-226C-229C (EU)) VH: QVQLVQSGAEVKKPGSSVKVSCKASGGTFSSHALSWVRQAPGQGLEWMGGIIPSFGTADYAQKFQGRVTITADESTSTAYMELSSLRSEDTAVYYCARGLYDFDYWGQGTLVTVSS VL: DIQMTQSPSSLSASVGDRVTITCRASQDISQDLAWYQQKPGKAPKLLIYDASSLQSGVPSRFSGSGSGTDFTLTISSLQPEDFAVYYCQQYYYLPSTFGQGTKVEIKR . Reported EC50 (ng/ml), cell viability after 7 days, Human CD34+ cells?
Response: 16
